Hi there, I'd appreciate the recorded BI for every entry that follows.
system: IL16-1; experiment: Holdup assay, IL16-1; format: binding, human
*1 amine or outer side, *2 acyl side, *3 side chain or, on linkers, in order; H or OH if unused. Where a SMILES comes first, the peptide text is derived from it. The star is where a group is joined. X1 = O=C(CCCC[C@@H]1SC[C@@H]2NC(=O)N[C@@H]21)NCCCOCCOCCOCCCN*; Suc = O=C(CCC(=O)[*:2])[*:1]
Enter the number alone.

// recorded BI for CC[C@H](C)[C@H](NC(=O)[C@H](CCC(N)=O)NC(=O)[C@@H](NC(=O)[C@H](Cc1c[nH]cn1)NC(=O)[C@H](CCC(N)=O)NC(=O)[C@H](CC(=O)O)NC(=O)[C@H](CCC(=O)O)NC(=O)[C@H](CC(=O)O)NC(=O)CCC(=O)NCCCOCCOCCOCCCNC(=O)CCCC[C@@H]1SC[C@@H]2NC(=O)N[C@@H]21)[C@@H](C)O)C(=O)N[C@H](C(=O)N[C@@H](CCCCNC(C)=O)C(=O)N[C@H](C(=O)O)C(C)C)[C@@H](C)O : 0.039

Short answer for CC[C@H](C)[C@H](NC(=O)[C@H](CCC(N)=O)NC(=O)[C@@H](NC(=O)[C@H](Cc1c[nH]cn1)NC(=O)[C@H](CCC(N)=O)NC(=O)[C@H](CC(=O)O)NC(=O)[C@H](CCC(=O)O)NC(=O)[C@H](CC(=O)O)NC(=O)[C@H](Cc1ccccc1)NC(=O)[C@@H]1CCCN1C(=O)CCC(=O)NCCCOCCOCCOCCCNC(=O)CCCC[C@@H]1SC[C@@H]2NC(=O)N[C@@H]21)[C@@H](C)O)C(=O)N[C@H](C(=O)N[C@@H](CCCCN)C(=O)N[C@H](C(=O)O)C(C)C)[C@@H](C)O [PTEN_13] ({X1-Suc}-PFDEDQHTQITKV-OH) : BI was 0.018

Just so you know, measured BI for CC[C@H](C)[C@H](NC(=O)[C@H](CCC(N)=O)NC(=O)[C@@H](NC(=O)[C@H](Cc1c[nH]cn1)NC(=O)[C@H](CCC(N)=O)NC(=O)[C@H](CC(=O)O)NC(=O)[C@H](CCC(=O)O)NC(=O)[C@H](CC(=O)O)NC(=O)CCC(=O)NCCCOCCOCCOCCCNC(=O)CCCC[C@@H]1SC[C@@H]2NC(=O)N[C@@H]21)[C@@H](C)O)C(=O)N[C@H](C(=O)N[C@@H](CCCNC(=N)N)C(=O)N[C@H](C(=O)O)C(C)C)[C@@H](C)O [PTEN_KR] ({X1-Suc}-DEDQHTQITRV-OH) came out at 0.06

Summary for this molecule, CC[C@H](C)[C@H](NC(=O)[C@H](CCC(N)=O)NC(=O)[C@@H](NC(=O)[C@H](Cc1c[nH]cn1)NC(=O)[C@H](CCC(N)=O)NC(=O)[C@H](CC(=O)O)NC(=O)[C@H](CCC(=O)O)NC(=O)[C@H](CC(=O)O)NC(=O)CCC(=O)NCCCOCCOCCOCCCNC(=O)CCCC[C@@H]1SC[C@@H]2NC(=O)N[C@@H]21)[C@@H](C)O)C(=O)N[C@H](C(=O)N[C@@H](CCCCN)C(=O)N[C@H](C(=O)O)C(C)C)[C@@H](C)O : BI is -0.017
